Tested on: MOLM-13 cells
Assay: Cell viability assay (CELLTITER-GLO), MOLM-13 cells
Assay type: cell-based
Details: Homo sapiens, MOLM-13, 72 h; Table 2; compound at 10 μM, 3 days; read-out: Effect on MOLM-13 cell viability (% DMSO)

molecule: CCC(=O)N1CCN(c2ncnc3c(F)c(-c4c(F)cccc4OCCCCCCCN4CCCC(c5cc(F)cc6c5CN(C5CCC(=O)NC5=O)C6=O)C4)c(Cl)cc23)CC1 (centres unmarked)
study-system: MOLM-13 cells
viability at 10 µM: < 10%
//
molecule: C=CC(=O)N1CC(N2Cc3ccc(-c4cc(O)cc5ccccc45)cc3N(CCOCCOCCNc3cccc4c3C(=O)N(C3CCC(=O)NC3=O)C4=O)C2=O)C1 (centres unmarked)
study-system: MOLM-13 cells
viability at 10 µM: ≥ 50%
//
molecule: C=C(Cl)C(=O)N1CCN(c2ncnc3c(F)c(-c4c(F)cccc4OCCC4CCC(CN5CCC(c6cc(F)cc7c6CN(C6CCC(=O)NC6=O)C7=O)CC5)CC4)c(Cl)cc23)CC1 (centres unmarked)
study-system: MOLM-13 cells
viability at 10 µM: < 10%
//
molecule: C=CC(=O)N1CCN(c2nc(OCCCCCCCN3CCC(c4cc(F)cc5c4CN(C4CCC(=O)NC4=O)C5=O)CC3)nc3c2CCN(c2cc(O)cc4ccccc24)C3)CC1 (centres unmarked)
study-system: MOLM-13 cells
viability at 10 µM: 25 to 50%
//
molecule: CCC(=O)N1CCN(c2ncnc3c(F)c(-c4c(F)cccc4OCCCCCCCN4CCC(c5cc6c(cc5F)C(=O)N(C5CCC(=O)NC5=O)C6)CC4)c(Cl)cc23)CC1 (centres unmarked)
study-system: MOLM-13 cells
viability at 10 µM: < 10%
//
molecule: CCC(=O)N1CCN(c2nc(OC[C@@H]3CCCN3C)nc3c(F)c(-c4c(F)cccc4OCCCCCCCN4CCC(c5cc(F)cc6c5CN(C5CCC(=O)NC5=O)C6=O)CC4)c(Cl)cc23)CC1 (some centres unmarked)
study-system: MOLM-13 cells
viability at 10 µM: < 10%
//
molecule: C=CC(=O)N1CCN(c2ncnc3c(F)c(-c4c(F)cccc4OCCOCCOCCC(=O)NCCNc4cccc5c4CN(C4CCC(=O)NC4=O)C5=O)c(Cl)cc23)CC1 (centres unmarked)
study-system: MOLM-13 cells
viability at 10 µM: < 10%
//
molecule: CC(C)/C=C(\C#N)C(=O)N1CCN(c2ncnc3c(F)c(-c4c(F)cccc4OCCCCCCCN4CCC(c5cc(F)cc6c5CN(C5CCC(=O)NC5=O)C6=O)CC4)c(Cl)cc23)CC1 (centres unmarked)
study-system: MOLM-13 cells
viability at 10 µM: < 10%
//
molecule: C=CC(=O)N1CCN(c2ncnc3c(F)c(-c4c(F)cccc4OCCCCCCCNC(=O)NCc4scc5c4CN(C4CCC(=O)NC4=O)C5=O)c(Cl)cc23)CC1 (centres unmarked)
study-system: MOLM-13 cells
viability at 10 µM: < 10%
//
molecule: C=CC(=O)N1CCN(c2ncnc3c(F)c(-c4c(F)cccc4OCCCCCCCN4CCC(c5scc6c5CN(C5CCC(=O)NC5=O)C6=O)CC4)c(Cl)cc23)CC1 (centres unmarked)
study-system: MOLM-13 cells
viability at 10 µM: < 10%
//
molecule: CC(=O)N1CCN(c2ncnc3c(F)c(-c4c(F)cccc4OCCCCCCCN4CCC(c5cc(F)cc6c5CN(C5CCC(=O)NC5=O)C6=O)CC4)c(Cl)cc23)CC1 (centres unmarked)
study-system: MOLM-13 cells
viability at 10 µM: < 10%
